# %Inh per record follows
# Test system: PIM2;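 also: KINOMEscan kinase panel screen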
# DETAILS: concentration: 1 μM, replicates: in singlicate; n = 1

SMILES REPRESENTATION	%Inh
Cc1ccc(O)cc1Nc1ccnc2cc(-c3ccc(CN4CCCCC4)o3)ccc12	2%
O=C(O)C(F)(F)F.O=c1[nH]ccc2nc(N[C@@H]3CCNC3)nc(Nc3cc(Cl)cc(Cl)c3)c12	0%
Cc1cc(-c2c(-c3ccc(F)cc3)ncn2CCCN2CCOCC2)nc(N)n1	26%

# input # query: %Inh of entry "CN(C)CCOc1ccc(-c2cc(-c3ccc(Cl)c(O)c3)c(-c3ccncc3)[nH]2)cc1.Cl.Cl"
# output 0%

# input # query: %Inh of entry "CN(c1ccc(NC(=O)Nc2cccc(Cl)c2)cc1)c1ccnc(N)n1.Cl"
# output 11%

# input # query: %Inh of entry "O=C(Nc1n[nH]c2nc(-c3cccc(O)c3)ccc12)C1CC1"
# output 81%

# input # query: %Inh of entry "Cc1ccc(O)cc1Nc1ccnc2ccc(C(C)(C)C)cc12"
# output 5%

# input # query: %Inh of entry "Cc1ccc(NC(=O)c2ccc(Cl)c(Cl)c2)cc1-c1ccc(C(=O)Nc2ccncc2)cc1"
# output 0%

# input # query: %Inh of entry "COc1cccc2c(-c3ccncc3)c(-c3ccc(F)cc3)nn12"
# output 0%
